# Test system: CCRF-CEM leukemia
# Experiment description: NCI-60 one-dose screen, 48 h (100 = growth as untreated, 0 = no growth, -100 = all killed)
# Protocol conditions: 10 µM
The panel holds about 83,000 compounds, 20% with a hit somewhere; the sample as a whole holds those more often.
For each record, check the reported growth: if it is below 90% write 1 (yes), else write 0 (no).

Please review the entries below; each comes with its answer.
* O=C(NN1C(=O)CSC1c1ccc(Cl)cc1)c1cccnc1 (stereo unspecified) | 0 (no)
* N=C1c2nc3n(c2C(=O)c2nc4n(c21)CCCC4)CCCC3 | 0 (no)
* Clc1cccc(-c2nc(-c3cccs3)no2)c1 | 1 (yes)
* COc1ccc(OC)c(NC(=O)c2sc3nc4c(cc3c2N)C(=O)CCC4)c1 | 1 (yes)

Q: Answer whether the molecule `CCOC(=O)CNC(=O)CCCCSc1ncnc2nc[nH]c12` has growth strictly less than 90%
Ans: 0 (no)

Q: Now try CCOC(=O)C(CSC(c1ccccc1)(c1ccccc1)c1ccccc1)NC(=O)C(CSC(c1ccccc1)(c1ccccc1)c1ccccc1)NC(c1ccccc1)(c1ccccc1)c1ccccc1 (stereo unspecified) .
Ans: 0 (no)

Q: Now try `Clc1cc2c(c(CSc3nc4ccccc4n4cccc34)c1)OCOC2` .
Ans: 0 (no)

Q: Now try `COc1ccc(Cl)cc1C(=O)Nc1nc2ccc(Cl)cc2s1` .
Ans: 1 (yes)

Q: Now try `COc1cccc(C(=O)Nc2ccc(CN3CCc4nc5cc(OC)c(OC)cc5cc43)cc2)c1` .
Ans: 1 (yes)
